Where these numbers come from: ChEMBL document CHEMBL3885861

Here, each record is paired with measured TERMINAL_BW data.
- Species on record: Rattus norvegicus
- PROTOCOL_NOTES: Open TG-GATES - Regimen: Daily Repeat
- Type: toxicity, organism-based, Sprague-Dawley
- Design: regimen Daily Repeat, gender Male, age 6 weeks
- PARTICULARS: in vivo, po, 0 mg/kg, […], route gavage, dose level Control, time 7 day
Write the answer as a number in g, unit excluded.

# COMPOUND, OBSERVATION_TYPE, UNIT_STRING, OBSERVED_MEASUREMENT
measured = [
    ("O=C1CN(/N=C/c2ccc(-c3ccc([N+](=O)[O-])cc3)o2)C(O)=N1 [DANTROLENE]", "TERMINAL_BW", "g", 269.1),
    ("O=C1NC(=O)C(c2ccccc2)(c2ccccc2)N1 [PHENYTOIN]", "TERMINAL_BW", "g", 247),
    ("COc1ccc(O)c(C(C)(C)C)c1.COc1ccc(O)cc1C(C)(C)C [BUTYLATED HYDROXYANISOLE]", "TERMINAL_BW", "g", 252.9),
    ("O=P1(N(CCCl)CCCl)NCCCO1 (stereo unspecified) [CYCLOPHOSPHAMIDE ANHYDROUS]", "TERMINAL_BW", "g", 254.4),
    ("Cc1cccc(Nc2cc(Cl)nc(SCC(=O)O)n2)c1C [PIRINIXIC ACID]", "TERMINAL_BW", "g", 265.8),
]

[Q] Any idea what TERMINAL_BW was measured for CS(=O)(=O)Nc1ccc([N+](=O)[O-])cc1Oc1ccccc1 [NIMESULIDE] ?
[A] 249.3

[Q] Quick one: TERMINAL_BW for Cn1cnc([N+](=O)[O-])c1Sc1ncnc2nc[nH]c12 [AZATHIOPRINE] ?
[A] 246.2

[Q] Recorded TERMINAL_BW of Cn1c(=O)c2c(ncn2C)n(C)c1=O [CAFFEINE] , please.
[A] 259.6

[Q] I would be grateful if you could share the reported TERMINAL_BW for COc1ccc(Cl)cc1C(=O)NCCc1ccc(S(=O)(=O)NC(=O)NC2CCCCC2)cc1 [GLYBURIDE] .
[A] 268.9

[Q] Can you share its TERMINAL_BW? I mean this compound: Cc1cnc(NC(=O)C2=C(O)c3ccccc3S(=O)(=O)N2C)s1 [MELOXICAM]
[A] 281.9

[Q] Value lookup for TERMINAL_BW; key = C=CCO [ALLYL ALCOHOL]
[A] 272.9
